# Tested on: HEK293FT dCK*-only
# protocolDescription: relative growth in counter assay (no AraC = 100%, AraC + DMSO = 0%); higher = more growth rescue independent of IKZF1
# details: compound concentration: 5 uM; AraC concentration: 0.3 uM; overnight pretreatment + 4 days AraC
Consider the following compounds; for each one, report its relative growth in counter assay.
Quick note: give the figure in %, leave out the unit.

[in] # value lookup — system HEK293FT dCK*-only, readout relative growth in counter assay, item COc1ccc2cc1Oc1ccc(cc1)C[C@H]1c3cc(c(OC)cc3CCN1C)Oc1c(OC)c(OC)cc3c1[C@H](C2)N(C)CC3 [Tetrandrine (Fanchinine)]
[out] -14.3

[in] Please answer likewise for O=C(CCCCCCC(=O)Nc1ccccc1)NO [Vorinostat (SAHA, MK0683)]
[out] -30.5

[in] Try this compound next: COC(=O)Nc1nc2cc(C(=O)c3ccc(F)cc3)ccc2[nH]1
[out] -8

[in] Field entry: CCOC(=O)Nc1ccc2c(c1)N(C(=O)CN(C)C)c1ccccc1CC2 [Tiracizine]
[out] 0.34

[in] # iterate: Cc1cc(C)nc(NS(=O)(=O)c2ccc(N)cc2)n1
[out] 2.2

[in] // same read-out, input: CCCCCCCCCCCCC[N+](C)(C)Cc1ccccc1
[out] -14.8

[in] What would you report for COC(=O)C1=C(C)NC(C)=C(C(=O)OC/C=C/c2ccccc2)C1c1cccc([N+](=O)[O-])c1 (stereo not given) [Pranidipine] ?
[out] -3.72

[in] Query Cc1ncsc1-c1ccc(CNC(=O)[C@@H]2C[C@@H](O)CN2C(=O)[C@@H](NC(=O)COCCOCCOCCOc2ccc(-c3ccc4ncnc(Nc5ccc(OCc6cccc(F)c6)c(Cl)c5)c4c3)cc2)C(C)(C)C)cc1 next
[out] 18

[in] Lookup Cc1ccc2c(=O)c3ccccc3n(CCCN)c2c1C
[out] -35.5

[in] What do you get for O=C(OOC(=O)c1ccccc1)c1ccccc1 ?
[out] -0.7

[in] Next compound up: C=C1CCC2[C@](C)(CO)[C@H](O)CC[C@@]2(C)[C@@H]1C/C=C1/C(=O)OC[C@H]1O (stereo not given in full) [Andrographolide]
[out] -20.8

[in] Okay, and CO[C@H]1C[C@@H]2CC[C@@H](C)[C@@](O)(O2)C(=O)C(=O)N2CCCC[C@H]2C(=O)O[C@H]([C@H](C)C[C@@H]2CC[C@@H](O)[C@H](OC)C2)CC(=O)[C@H](C)/C=C(\C)[C@@H](O)[C@@H](OC)C(=O)[C@H](C)C[C@H](C)/C=C/C=C/C=C/1C [Rapamycin] ?
[out] -20.8

[in] Item: CCN(CC)CCCN(c1ccccc1)C1Cc2ccccc2C1 [aprindine]
[out] 4.05

[in] Another compound to look at: COc1cc([C@@H]2c3cc4c(cc3C(O[C@@H]3O[C@@H]5CO[C@@H](c6cccs6)OC5[C@H](O)[C@H]3O)C3COC(=O)[C@@H]32)OCO4)cc(OC)c1O (stereo not given in full)
[out] -34.5

[in] Next compound up: CCN(CC)CCCC(C)Nc1nc(C)cc(Nc2ccc3nc(C)cc(N)c3c2)n1 (stereo not given)
[out] -7.4

###

# testSystem: IKZF1 (dCK*-IKZF1 fusion in HEK293FT)
# protocolDescription: inhibition of IKZF1 HTRF signal (DMSO = 0%, pomalidomide 10 uM = 100%); higher = lower IKZF1 protein level
# details: compound concentration: 5 uM, overnight (~20 h)
Please go through the items and note down their inhibition of IKZF1 HTRF signal.
Please state the figure in %; there is no need to write the unit.

[in] Requested read-out: inhibition of IKZF1 HTRF signal. Entry: CN(C)CC/C=C1/c2ccccc2Sc2ccc(Cl)cc21
[out] -9.91

[in] Now consider CCN(CC)CCCC(C)Nc1ccnc2cc(Cl)ccc12 (stereo unspecified) [Chloroquine Diphosphate] and answer again.
[out] -13.4

[in] Again, but for O=C(N/N=C/c1ccc([N+](=O)[O-])o1)c1ccc(O)cc1
[out] 10.2

[in] Input C[C@H]1NCc2cc(-c3ccc4c(=O)c(C(=O)O)cn(C5CC5)c4c3OC(F)F)ccc21 [Garenoxacin (Mesylate hydrate)]
[out] -29

[in] // next record COc1cc([C@@H]2c3cc4c(cc3C(O[C@@H]3O[C@@H]5CO[C@@H](c6cccs6)OC5[C@H](O)[C@H]3O)C3COC(=O)[C@@H]32)OCO4)cc(OC)c1O (stereo partly specified)
[out] 16.8

[in] Now the same for COc1cc(OC)c(/C=C2/C(=O)Nc3ccccc32)c(OC)c1
[out] -15.9

[in] Now the compound COc1cc(NC(=O)c2ccc(-c3ccc(Cl)cc3)o2)cc(OC)c1
[out] -48.3

[in] Same lookup for CCCCC/N=c1/ccn(Cc2ccccc2)c2ccccc12 , please.
[out] -21.7

[in] Ok, now CC(C)N(CCC(=O)c1ccc2ccccc2c1)Cc1ccccc1
[out] -41.5

[in] What about this compound? COc1ccc2cc1Oc1ccc(cc1)C[C@H]1c3cc(c(OC)cc3CCN1C)Oc1c(OC)c(OC)cc3c1[C@H](C2)N(C)CC3
[out] 8.84

[in] Also O=C(N/N=C/c1ccccc1O)c1ccccc1O ?
[out] -40.4

[in] Next entry: Clc1ccc(C(Cn2ccnc2)OCc2ccc(Sc3ccccc3)cc2)c(Cl)c1 (stereo unspecified) [Fenticonazole nitrate]
[out] -51.2

[in] Can you handle CC(C)/N=c1\cc2n(-c3ccc(Cl)cc3)c3ccccc3nc-2cc1Nc1ccc(Cl)cc1 next?
[out] 16.2

[in] Would you kindly repeat that for O=C(Nc1cc(C(F)(F)F)ccc1O)Nc1cc(C(F)(F)F)ccc1O ?
[out] -27.7

[in] // query: COC(=O)C1=C(C)NC(C)=C(C(=O)OC(C)C)C1c1cccc2nonc12 (stereo unspecified)
[out] -28.6

[in] Query C1CCC(N/C(=N/C23CC4CC(CC(C4)C2)C3)N2CCOCC2)CC1 next
[out] -35.4
